Source: paper PMC4535766

assay: Cytotoxicity on macrophages infected with L. donovani; assay type: cell-based, mouse; settings: mouse, mouse peritoneal macrophages infected with L. donovani, infected macrophages; read-out: Cytotox. mac.inf. IC50
attribute.measured: IC50 at 96 h

Field IC50 at 96 h (entry `CCN(CC)CCCCCCNc1cc(OC)cc2c(C)ccnc12` ) reads > 29.1 µM

* * *

assay: In vitro cytotoxicity with mouse peritoneal macrophages (Alamar Blue); type: cell-based; conditions: mouse
Where a name gives a salt, the structure may show the parent alone.
attribute.measured: IC50 at 96 h

INSERT INTO results (molecule, experimental_result) VALUES
  ('Clc1ccccc1C(c1ccccc1)(c1ccccc1)n1ccnc1', '32.5 µM');

`CCN(CC)CCCCCCNc1cc(OC)cc2c(C)ccnc12` yielded IC50 at 96 h of 21.4 µM

Please fill in: IC50 at 96 h reported for CC1CS(=O)(=O)CCN1/N=C/c1ccc([N+](=O)[O-])o1 (stereo not shown) = 15.7 µM

Lab note: `CC(C)/N=c1\cc2n(-c3ccc(Cl)cc3)c3ccccc3nc-2cc1Nc1ccc(Cl)cc1` gave IC50 at 96 h of 10.7 µM

Quick note, IC50 at 96 h for `Cc1cc(C2CCCCC2)n(O)c(=O)c1` landed at 20.3 µM

Lookup result for Clc1ccc(COC(Cn2ccnc2)c2ccc(Cl)cc2Cl)c(Cl)c1 (stereo not shown) [Miconazole (Nitrate salt), Miconazole] ; measured IC50 at 96 h: 23.9 µM

// IC50 at 96 h lookup, molecule = `C[C@@H]1[C@H](O)[C@@H](C)/C=C/C=C/C=C/C=C/C=C/C=C/C=C/[C@H](O[C@@H]2O[C@H](C)[C@@H](O)[C@H](N)[C@@H]2O)C[C@@H]2O[C@](O)(C[C@@H](O)C[C@@H](O)[C@H](O)CC[C@@H](O)C[C@@H](O)CC(=O)O[C@H]1C)C[C@H](O)[C@H]2C(=O)O` , result: 22.4 µM

The recorded IC50 at 96 h for Clc1ccc(C(Cn2ccnc2)OCc2ccsc2Cl)c(Cl)c1 (stereo not shown) is 51.1 µM

// IC50 at 96 h lookup, molecule = `N=C(N)c1ccc(OCCCCCOc2ccc(C(=N)N)cc2)cc1` , result: 7.78 µM

# IC50 at 96 h (molecule: Clc1ccc(COC(Cn2ccnc2)c2ccc(Cl)cc2Cl)cc1 (stereo not shown) [Econazole (Nitrate salt), Econazole] ) is 22.8 µM
